Experiment: Inhibition of recombinant mouse GALK1 using ATP as substrate incubated for 1 hr and measured by Kinase-Glo assay
Conditions: read-out: IC50
Measured IC50 accompanies every entry in the list below.
reported_property: IC50 (µM)

molecule: CC1=C(S(C)(=O)=O)C(c2ccccc2Cl)N=C(Nc2nc3ccccc3o2)N1 (centres undefined)
value_measured: 19.3
--
molecule: COC(=O)c1ccnc(NC(=O)C2=C(C)NC(Nc3nc4ccc(F)cc4o3)=N[C@@H]2c2ccccc2Cl)c1
value_measured: 86.3
--
molecule: CC1=C(C(=O)Nc2cc(C(=O)O)ccn2)C(c2ccccc2Cl)N=C(Nc2nc3ccccc3o2)N1C(=O)c1ccccc1 (centres undefined)
value_measured: 7.69
--
molecule: CCOC(=O)C1=C(C)NC(Nc2nc3ccccc3o2)=NC1c1ccccc1Cl (centres undefined)
value_measured: 13.7
--
molecule: COc1ccc(C2N=C(Nc3nc4ccccc4o3)NC(C)=C2C(=O)Nc2nncs2)c(Cl)c1 (centres undefined)
value_measured: 5.44
--
molecule: CC1=C(C(=O)N2CCOCC2)C(c2ccccc2Cl)N=C(Nc2nc3ccccc3o2)N1 (centres undefined)
value_measured: 24.3
--
molecule: CC1=C(C(=O)Nc2cc(C(=O)O)ccn2)C(c2ccccc2Cl)N=C(Nc2nc3cc(C)ccc3o2)N1 (centres undefined)
value_measured: 3.06
--
molecule: CC1=C(C(=O)Nc2cc(C(=O)O)ccn2)[C@@H](c2ccc(C)cc2Cl)N=C(Nc2nc3ccc(F)cc3o2)N1
value_measured: 6.85
--
molecule: CC1=C(C(=O)NCc2cnn(C)c2)C(c2ccc(C)cc2Cl)N=C(Nc2nc3cnccc3o2)N1 (centres undefined)
value_measured: 12.2
--
molecule: CC1=C(C(=O)Nc2cc(N(C)C)ccn2)C(c2ccc(C)cc2Cl)N=C(Nc2nc3ccc(F)cc3o2)N1 (centres undefined)
value_measured: 6.85
--
molecule: CCn1cc(CNC(=O)C2=C(C)NC(Nc3nc4ccc(F)c(N)c4o3)=NC2c2ccccc2Cl)cn1 (centres undefined)
value_measured: 2.17
--
molecule: CC1=C(C(=O)Nc2cc(C#N)ccn2)C(c2ccccc2Cl)N=C(Nc2nc3ccc(F)cc3o2)N1 (centres undefined)
value_measured: 4.85
--
molecule: CC1=C(C(=O)Nc2ccc(CO)nc2)C(c2ccccc2Cl)N=C(Nc2nc3ccccc3o2)N1 (centres undefined)
value_measured: 7.69
--
molecule: CC1=C(C(=O)Nc2cccc(CO)c2)C(c2ccccc2Cl)N=C(Nc2nc3ccccc3o2)N1 (centres undefined)
value_measured: 9.68
--
molecule: CC1=C(C(=O)Nc2cccc(CN)c2)C(c2ccccc2Cl)N=C(Nc2nc3ccccc3o2)N1 (centres undefined)
value_measured: 6.85
--
molecule: CC1=C(C(=O)Nc2cc(C(=O)O)ccc2F)C(c2ccccc2Cl)N=C(Nc2nc3ccccc3o2)N1 (centres undefined)
value_measured: 10.9
--
molecule: CC1=C(C(=O)Nc2ccc(C(N)=O)cc2)C(c2ccccc2Cl)N=C(Nc2nc3ccccc3o2)N1 (centres undefined)
value_measured: 6.85
--
molecule: CC1=C(C(=O)Nc2cc(C(=O)O)ccn2)C(c2ccc(-n3ccnc3)cc2Cl)N=C(Nc2nc3ccc(F)cc3o2)N1 (centres undefined)
value_measured: 0.97
--
molecule: CC1=C(C(=O)NCc2c(C)nn(C)c2C)C(c2ccc(C)cc2Cl)N=C(Nc2nc3cccc(N)c3o2)N1 (centres undefined)
value_measured: 6.85
--
molecule: CC1=C(C(=O)NCc2nccn2C)C(c2ccccc2Cl)N=C(Nc2nc3ccccc3o2)N1 (centres undefined)
value_measured: 13.7
--
molecule: CC1=C(C(=O)Nc2nncs2)C(c2ccncc2Br)N=C(Nc2nc3ccccc3o2)N1 (centres undefined)
value_measured: 19.3
--
molecule: CC1=C(C(=O)Nc2cc(C(=O)O)ccn2)[C@@H](c2ccc(C)cc2Cl)N=C(Nc2nc3cccc(N)c3o2)N1
value_measured: 21.7
--
molecule: CC1=C(C(=O)Nc2cccc(C(=O)O)c2)C(c2ccccc2Cl)N=C(Nc2nc3ccccc3o2)N1 (centres undefined)
value_measured: 6.11
--
molecule: CC1=C(C(=O)Nc2cc(C(=O)O)ccn2)[C@@H](c2ccccc2Cl)N=C(Nc2nc3cccc(N)c3o2)N1
value_measured: 34.4
--
molecule: CC1=C(C(=O)Nc2cccc(C(N)=O)c2)C(c2ccccc2Cl)N=C(Nc2nc3ccccc3o2)N1 (centres undefined)
value_measured: 17.2
--
molecule: CC1=C(C(=O)Nc2ccc(CN3CCOCC3)cc2)C(c2ccccc2Cl)N=C(Nc2nc3ccccc3o2)N1 (centres undefined)
value_measured: 9.68
--
molecule: CC1=C(C(=O)Nc2nncs2)C(c2ccccc2Br)N=C(Nc2nc3ccccc3o2)N1 (centres undefined)
value_measured: 9.68
--
molecule: CC1=C(C(=O)Nc2ccccc2F)C(c2ccccc2Cl)N=C(Nc2nc3ccccc3o2)N1 (centres undefined)
value_measured: 9.68
--
molecule: CC1=C(C(=O)Nc2ccc(-c3cn[nH]c3)cc2)C(c2ccccc2Cl)N=C(Nc2nc3ccccc3o2)N1 (centres undefined)
value_measured: 12.2
--
molecule: CC1=C(C(=O)Nc2ccc(-n3cccn3)cc2)C(c2ccccc2Cl)N=C(Nc2nc3ccccc3o2)N1 (centres undefined)
value_measured: 12.2
--
molecule: O=C(Nc1nncs1)C1=C(c2cnccn2)NC(Nc2nc3ccccc3o2)=NC1c1ccccc1Cl (centres undefined)
value_measured: 21.7
--
molecule: CC1=C(C(=O)Nc2cc(C(=O)O)ccn2)C(c2ccc(C)cc2Cl)N=C(Nc2nc3ccc(F)cc3o2)N1 (racemic)
value_measured: 3.06
--
molecule: COC(=O)c1ccc(NC(=O)C2=C(C)NC(Nc3nc4ccccc4o3)=NC2c2ccccc2Cl)cn1 (centres undefined)
value_measured: 6.85
--
molecule: CC1=C(C(=O)Nc2cc(C(=O)O)ccn2)C(c2ccc(-c3ccc(C(F)(F)F)nc3)cc2Cl)N=C(Nc2nc3ccc(F)cc3o2)N1 (centres undefined)
value_measured: 3.85

Where these numbers come from: ChEMBL document CHEMBL5050861
